# assayed_target: SARS-CoV-2 spike (S) glycoprotein on virus (neutralization assays) (SARS-CoV-2, UniProt P0DTC2 14-1273)
# test_method_notes: cell-based or functional assay
metric: SARS-CoV-2 focus reduction test, IC50 (µg/mL)
Supply the numeric figure in µg/mL, leaving out any unit text.

Ask | Answer with the recorded SARS-CoV-2 focus reduction test, IC50 of COV2-2096 (antibody, V domains shown) VH: QVQLVQSGAEVKKPGASVKVSCKASGYTFGSFDINWVRQATGQGLEWMGRMNSNSGNTAYAQKFQGRVTMTRDTSTNTAYMELSSLRSEDTAMYYCARMRSGWPTHGRPDDFWGRGTLVTVSS VL: QSVLTQAPSASGTPGQRVTISCSGSNSNIGSYTINWYQQLPGTAPKLLIYGNDQRTSGVPDRFSGSKFGTSASLAISGLQSEDENNYYCAVWDDSLNGLVFGGGTKLTVL only.
Reply | 0.29
